Molecular target: human GlyT1c transporter (Homo sapiens)
Construct: expressed in transfected cells; host or cells: CHO cells (recombinant; line hGlyT1c_5_CHO is named for the uptake assay)
Sequence (P48067 whole entry): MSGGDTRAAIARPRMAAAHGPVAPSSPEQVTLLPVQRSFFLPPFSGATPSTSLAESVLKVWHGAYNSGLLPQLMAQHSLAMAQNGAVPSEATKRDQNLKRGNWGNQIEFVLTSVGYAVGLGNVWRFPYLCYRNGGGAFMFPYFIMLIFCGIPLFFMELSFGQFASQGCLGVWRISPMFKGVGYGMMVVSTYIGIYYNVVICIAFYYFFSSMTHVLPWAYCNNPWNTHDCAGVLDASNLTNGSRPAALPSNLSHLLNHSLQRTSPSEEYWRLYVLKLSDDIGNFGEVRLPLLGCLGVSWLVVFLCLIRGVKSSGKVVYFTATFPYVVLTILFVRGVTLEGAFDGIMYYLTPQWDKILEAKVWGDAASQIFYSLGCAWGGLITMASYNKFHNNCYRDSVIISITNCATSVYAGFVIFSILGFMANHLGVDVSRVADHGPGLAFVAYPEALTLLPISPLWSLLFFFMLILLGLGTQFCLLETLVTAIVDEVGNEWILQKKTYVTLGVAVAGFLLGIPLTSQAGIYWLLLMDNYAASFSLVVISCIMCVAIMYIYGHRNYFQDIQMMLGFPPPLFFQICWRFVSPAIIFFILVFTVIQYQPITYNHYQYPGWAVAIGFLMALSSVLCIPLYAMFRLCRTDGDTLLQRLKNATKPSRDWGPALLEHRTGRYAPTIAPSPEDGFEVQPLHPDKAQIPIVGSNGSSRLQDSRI
Experiment: Radioligand binding assay using recombinant CHO cell membranes expressing human GlyT1
Settings: radioligand binding to human GlyT1c transporter-expressing membranes
pKi: −log10 of the molar value.
readout label: pKi

COCC1(CN[C@H]2CN(S(=O)(=O)c3cn(C)cn3)C[C@@H]2c2ccccc2)CC1 : ≥ 5.00
Cn1cnc(S(=O)(=O)N2C[C@@H](COc3ccnc(C(F)(F)F)c3)[C@H](c3ccc(F)cc3)C2)c1 (relative stereo) : ≥ 7.00
Cn1cnc(S(=O)(=O)N2C[C@H](Nc3cc(-c4cccc(F)c4)ncn3)[C@@H](c3ccc(F)cc3)C2)c1 : ≥ 8.00
Cn1cnc(S(=O)(=O)N2C[C@H](Nc3ccc(C#N)c(C(F)(F)F)c3)[C@@H](c3ccc(F)cc3)C2)c1 : ≥ 5.00
Cn1cnc(S(=O)(=O)N2C[C@H](Nc3cc(OCC(F)(F)F)c(F)cn3)[C@@H](c3ccc(F)cc3)C2)c1 : ≥ 8.00
O=S(=O)(c1cccnc1)N1CC(Nc2ccc(F)c(F)c2)C(c2ccccc2)C1 (centres unmarked) : ≥ 5.00
Cc1nc(C)c(CN[C@H]2CN(S(=O)(=O)c3cn(C)cn3)C[C@@H]2c2ccccc2)s1 : ≥ 5.00
Cn1cnc(S(=O)(=O)N2C[C@@H](Nc3ccc(F)c(Cl)c3)[C@H](c3ccccc3)C2)c1 (relative stereo) : ≥ 7.00
Cn1cnc(S(=O)(=O)N2C[C@@H](Nc3ccc(Cl)c(F)c3)[C@H](c3ccc(F)cc3)C2)c1 (relative stereo) : ≥ 6.00
CCCCN(CCCC)C(=O)[C@@H]1CN(S(=O)(=O)c2cn(C)cn2)C[C@H]1c1ccc(F)cc1 (relative stereo) : ≥ 6.00

Enquiry: Query: pKi; subject: Cn1cnc(S(=O)(=O)N2C[C@@H](Nc3ccc(F)cc3)[C@H](c3ccccc3)C2)c1 (relative stereo)
Return: ≥ 6.00

Enquiry: Query: pKi; subject: Cn1cnc(S(=O)(=O)N2C[C@H](NC(=O)Nc3ccccc3)[C@@H](c3ccc(F)cc3)C2)c1
Return: ≥ 6.00

Enquiry: Query: pKi; subject: Cn1cnc(S(=O)(=O)N2C[C@@H](C(=O)Nc3cccc(C(F)(F)F)c3Cl)[C@H](c3ccc(F)cc3)C2)c1 (relative stereo)
Return: ≥ 6.00

Enquiry: Query: pKi; subject: Cn1ccc2cc(S(=O)(=O)N3CC(Nc4ccc(F)c(F)c4)C(c4ccccc4)C3)ccc21 (centres unmarked)
Return: ≤ 5.00
